Target: human full length PDE3B (Homo sapiens)
Sequence (Q13370 whole entry): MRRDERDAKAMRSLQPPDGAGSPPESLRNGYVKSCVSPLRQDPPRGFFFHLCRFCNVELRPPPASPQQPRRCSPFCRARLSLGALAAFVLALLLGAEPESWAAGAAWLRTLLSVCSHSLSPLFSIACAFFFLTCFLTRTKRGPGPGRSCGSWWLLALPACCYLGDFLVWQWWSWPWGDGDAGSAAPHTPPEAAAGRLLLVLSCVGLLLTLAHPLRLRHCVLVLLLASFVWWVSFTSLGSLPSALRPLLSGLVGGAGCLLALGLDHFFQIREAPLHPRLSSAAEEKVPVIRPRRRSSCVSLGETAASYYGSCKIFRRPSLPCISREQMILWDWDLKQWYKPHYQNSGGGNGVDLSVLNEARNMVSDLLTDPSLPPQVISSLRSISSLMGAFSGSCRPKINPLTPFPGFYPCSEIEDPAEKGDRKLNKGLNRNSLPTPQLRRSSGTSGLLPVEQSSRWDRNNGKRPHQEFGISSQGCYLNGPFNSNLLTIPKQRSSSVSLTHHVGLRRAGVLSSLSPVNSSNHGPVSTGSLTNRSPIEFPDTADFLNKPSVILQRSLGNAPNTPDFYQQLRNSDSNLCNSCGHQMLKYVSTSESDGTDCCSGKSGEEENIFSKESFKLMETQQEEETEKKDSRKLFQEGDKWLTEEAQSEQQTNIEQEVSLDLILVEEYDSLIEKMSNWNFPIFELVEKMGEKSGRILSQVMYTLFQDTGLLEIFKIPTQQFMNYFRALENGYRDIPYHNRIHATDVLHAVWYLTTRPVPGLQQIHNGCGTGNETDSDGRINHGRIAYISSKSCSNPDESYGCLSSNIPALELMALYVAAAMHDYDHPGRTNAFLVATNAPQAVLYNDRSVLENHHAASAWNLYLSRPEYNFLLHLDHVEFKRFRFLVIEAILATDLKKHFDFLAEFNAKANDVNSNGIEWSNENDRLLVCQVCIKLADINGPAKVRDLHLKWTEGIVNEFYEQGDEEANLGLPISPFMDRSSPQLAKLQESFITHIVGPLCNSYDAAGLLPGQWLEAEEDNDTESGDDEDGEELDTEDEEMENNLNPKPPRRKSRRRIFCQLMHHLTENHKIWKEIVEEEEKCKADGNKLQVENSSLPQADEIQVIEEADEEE
Value Kind: pIC50
# pIC50: negative log10 of molar concentration; output just the value

Prompt: Entry C[C@@H]1CC(=O)NN=C1c1cc(Cl)c(N2CCOCC2)c(Cl)c1 has what pIC50?
Completion: 7.96
